Each entry below carries its reported pIC50.
- Test system: acetylated tubulin (Lys40) in HeLa cells
- test details: Acetylated α-tubulin measurement in vitro (immunocytochemistry)
- Assay type: cell-based
- applied conditions: Homo sapiens, 6 hours incubation, acetylated tubulin (Lys40) by immunocytochemistry, read-out: IC50 (Tubulin deacetylation)
pIC50: −log10 of the molar value.

// worked examples, pIC50 included
molecule="Cc1ccc2oc(SCC(=O)c3ccc(CNC(=O)C(C)(C)C)s3)nc2n1 [Example 23]" test_result="6.00 to 6.30"
molecule="Cc1nc(SCC(=O)c2ccc(CNC(=O)CO)s2)c2cc(NCC3CC3)ccc2n1 [Example 78]" test_result="6.30 to 7.00"
molecule="O=C(CO)NCc1ccc(C(=O)CSc2nc3ccc(C(F)(F)F)nc3o2)s1 [Example 117]" test_result="≥ 7.00"

Give reported pIC50 value for COc1cccc2nc(C)nc(SCC(=O)c3ccc(CNC(=O)CO)s3)c12 [Example 143] 6.30 to 7.00

Give reported pIC50 value for Cc1nc(SCC(=O)c2ccc(CNC(=O)CO)s2)c2cc(OC3CC3)ccc2n1 [Example 77] 6.30 to 7.00

Give reported pIC50 value for COc1ccc2nc(C)nc(SCC(=O)c3ccc(CNC(=O)C4CN(C)C4)s3)c2c1 [Example 178] ≥ 7.00

Give reported pIC50 value for COc1ccc2nc(C)nc(SCC(=O)c3ccc(CNC(=O)C(C)(C)C)s3)c2c1 [Example 17] 6.00 to 6.30

Give reported pIC50 value for CC(NC(=O)CO)c1ccc(C(=O)CSc2nc3cnc(C(F)(F)F)cc3o2)s1 (stereo in doubt) [Example 129] 6.30 to 7.00

====

Each entry below carries its reported IC50.
- System: acetylated tubulin (Lys40) in HeLa cells
- test details: Acetylated α-tubulin measurement in vitro (immunocytochemistry)
- Type: cell-based
- applied conditions: Homo sapiens, 6 hours incubation, acetylated tubulin (Lys40) by immunocytochemistry, read-out: IC50 (Tubulin deacetylation)

molecule=Cn1cc2c(SCC(=O)c3ccc(CNC(=O)C4CC4)s3)nc(C(F)(F)F)nc2n1 measurement_target="acetylated tubulin (Lys40) in HeLa cells" metric=IC50 test_result="1 to 3.33 µM"
molecule=COc1ccc2nc(C)nc(SCC(=O)c3ccc(CN4CCOCC4=O)s3)c2c1 measurement_target="acetylated tubulin (Lys40) in HeLa cells" metric=IC50 test_result="0.1 to 0.5 µM"
molecule=CCn1cc2c(SCC(=O)c3ccc(CNC(=O)CO)s3)nc(C(F)(F)F)nc2n1 measurement_target="acetylated tubulin (Lys40) in HeLa cells" metric=IC50 test_result="≤ 0.1 µM"
molecule=Cc1nc(SCC(=O)c2ccc(CNC(=O)CO)s2)c2cc(Cl)cc(F)c2n1 measurement_target="acetylated tubulin (Lys40) in HeLa cells" metric=IC50 test_result="≤ 0.1 µM"
molecule=COc1cc2c(SCC(=O)c3ccc(CNC(=O)CO)s3)nc(C)nc2cn1 measurement_target="acetylated tubulin (Lys40) in HeLa cells" metric=IC50 test_result="≤ 0.1 µM"

Give reported IC50 value for `O=C(CSc1nc(C(F)(F)F)nc2ccccc12)c1ccc(CCNC(=O)C2CC2)s1` > 3.33 µM

Give reported IC50 value for `CN(Cc1ccc(C(=O)CSc2nc(C(F)(F)F)nc3nn(C)cc23)s1)C(=O)CO` 0.1 to 0.5 µM

Give reported IC50 value for `Cc1nc(SCC(=O)c2ccc(CNC(=O)C(C)(C)C)s2)c2ccc(F)cc2n1` 1 to 3.33 µM

Give reported IC50 value for `Cn1ncc2c(SCC(=O)c3ccc(CNC(=O)CO)s3)nc(C(F)(F)F)nc21` 0.1 to 0.5 µM

Give reported IC50 value for `O=C(CO)NCc1ccc(C(=O)CSc2nc(C(F)(F)F)nc3cc(C4CC4)nn23)s1` 0.1 to 0.5 µM

Give reported IC50 value for `Cc1nc(SCC(=O)c2ccc(CNC(=O)CO)s2)c2cc(C(F)(F)F)ccc2n1` ≤ 0.1 µM

Give reported IC50 value for Cc1nc(SCC(=O)c2ccc(CNC(=O)C3CC3(F)F)s2)c2cc(OC(F)(F)F)ccc2n1 (stereo not drawn) 0.1 to 0.5 µM

Reference for the values: patent US12421222B2
